# PROCEDURE_SUMMARY: NOVARTIS: Cytotoxicity against human hepatocellular carcinoma cell line (Huh7)
# Type: toxicity, cell-based, Huh-7
# EXPERIMENTAL_CONDITIONS: Huh7 cells (hepatocellular carcinoma cell line)
Give CC50 for every item shown.

Provide measured CC50 value, entry: `CCN(c1ccc(OC)cc1)S(=O)(=O)c1ccc(C)cc1`
> 100 µM

Provide measured CC50 value, entry: `C/C=C1/C[C@H]2[C@@H](OC)Nc3cc(O)c(OC)cc3C(=O)N2C1`
8.49 µM

Provide measured CC50 value, entry: `CCCNC(=O)c1ccc(OC2CCN(CC3CCCCC3)CC2)c(Cl)c1`
42.4 µM

Provide measured CC50 value, entry: `Oc1ccc(-c2ccc3c(c2)OCO3)cc1CNC1CCN(Cc2ccccc2)CC1`
29.9 µM

Provide measured CC50 value, entry: `CCOc1ccc2[nH]c(=O)c(CN(CCN(CC)CC)C(=S)NCCCN(CC)CC)cc2c1`
> 100 µM

Provide measured CC50 value, entry: `COc1cc2nc(NCCCOC(C)C)n3nc(-c4ccccc4)nc3c2cc1OC`
> 100 µM

Provide measured CC50 value, entry: `CN(C)c1ccc(/C=C2\SC(=Nc3ccc(O)cc3)NC2=O)cc1`
8.59 µM

Provide measured CC50 value, entry: `CC[n+]1c(/C=C/c2ccc(C)cc2)ccc2ccccc21`
> 10 µM

Provide measured CC50 value, entry: COC(=O)C1=C(C)NC2=C(C(=O)CC(c3ccc(OC)c(OC)c3)C2)C1c1ccc(Br)cc1 (stereo unspecified)
> 100 µM

Provide measured CC50 value, entry: `CN1CCN(CCCNc2ccnc3cc4ccccc4cc23)CC1`
5.93 µM

Provide measured CC50 value, entry: COc1ccc(C(=O)N2C(C(=O)Nc3ccccc3F)CSC2c2ccc(C(C)(C)C)cc2)cc1 (stereo unspecified)
> 3.6 µM

Provide measured CC50 value, entry: `C=C[C@H]1CN2CC[C@H]1C[C@@H]2[C@@H](OC(C)=O)c1ccnc2ccccc12`
> 10 µM

Provide measured CC50 value, entry: `CCOC(=O)c1oc2cc(O)c(CC)cc2c(=O)c1-c1ccc2c(c1)OCO2`
> 10 µM

Provide measured CC50 value, entry: `COCCNC(=O)CN1C(=O)CC(C)(C)Sc2ccccc21`
> 10 µM

Provide measured CC50 value, entry: `CCOC(=O)c1c(NC(=O)c2ccc(S(=O)(=O)N(C)c3ccccc3)cc2)sc2c1CCN(C(=O)OCC)C2`
> 100 µM

Provide measured CC50 value, entry: `Cc1cc(C)nc(SCc2cc(=O)c(OC(=O)c3ccccc3Br)co2)n1`
> 100 µM

Provide measured CC50 value, entry: `Cc1cccc(N2CCN(c3nc4ccccc4c4nnc(C)n34)CC2)c1C`
> 100 µM

Provide measured CC50 value, entry: CN1CCCN(C(=O)C2CC23CCN(Cc2ccc(N(C)c4ccccc4)cc2)CC3)CC1 (stereo unspecified)
20.8 µM

Provide measured CC50 value, entry: `CCCCOc1ccc(NC2=NC3(CCCC3)NC(N)=N2)cc1`
> 100 µM

Provide measured CC50 value, entry: `Nc1ccc(C(=O)Nc2ccc(-c3nc4ccccc4o3)cc2)cc1`
> 100 µM

Provide measured CC50 value, entry: `Cc1cc(N2CCCCC2)nc(NCc2ccccc2)n1`
38.4 µM
